measuredOn: T1, biotin-peptide FNFTDFYCEK (human)
T1 peptide: Biotin-FNFTDFYCEK
assayOverview: ELISA biotin-peptide; scFv 10 ug/mL; repI
Where no end group is shown, it is not given here. The star is where a group is joined. Biotin = O=C1N[C@H]2[C@H](CS[C@H]2CCCCC(=O)*)N1
resultType: OD450 (OD)
Answers are plain numbers, in OD.

Return OD450 (reported value) for this binder: Comparative antibody 2 (Comp-2) scFv, 243LO326 (VH SEQ ID NO: 51 and VL SEQ ID NO: 52 of WO 2022/195028 A2), His-tagged (scFv) scFv: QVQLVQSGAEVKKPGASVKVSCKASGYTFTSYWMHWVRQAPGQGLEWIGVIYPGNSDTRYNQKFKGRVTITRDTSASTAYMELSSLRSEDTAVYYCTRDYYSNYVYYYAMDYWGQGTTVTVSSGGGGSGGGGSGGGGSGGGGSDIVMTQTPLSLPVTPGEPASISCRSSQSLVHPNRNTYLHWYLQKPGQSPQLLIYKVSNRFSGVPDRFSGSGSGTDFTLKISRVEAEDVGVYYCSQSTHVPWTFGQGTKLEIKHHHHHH 1.45

Source: patent US20260232732A1
